Quick list: ALP (A/L) per entry.
- experimental details: Serum biochemical markers after treatment of MNU-induced rats
- Type: in vivo, Wistar rats
- conditions: serum, dose 50 mg/kg
// return numeric value only (unit: A/L, not printed)

In [3]: df
Out[3]:
                                   compound  measurement_label  observed_measurement
0  CC(=O)c1cc(C(=O)O[C@@H]2/C=C/C(=O)O[C@@H](O)CCC/C=C/[C@@H]3C[C@H](O)C[C@H]32)ccc1OCCN(C)C          ALP (A/L)                119.47
1  CC(=O)c1cc(C(=O)O[C@@H]2/C=C/C(=O)O[C@@H](O)CCC/C=C/[C@@H]3C[C@H](O)C[C@H]32)ccc1OCCN1CC(C(=O)O)=CCC1=O          ALP (A/L)                139.42
2  CC/C(=C(\c1ccc(O)cc1)c1ccc(OCCN(C)C)cc1)c1ccccc1 [Compound 4-OHT., 4-hydroxytamoxifen, reference compound]          ALP (A/L)                131.43
3  CC(=O)c1cc(C(=O)O[C@@H]2/C=C/C(=O)O[C@@H](O)CCC/C=C/[C@@H]3C[C@H](O)C[C@H]32)ccc1OCCS(=O)(=O)O          ALP (A/L)                104.52
4  CC(=O)c1cc(C(=O)O[C@@H]2/C=C/C(=O)O[C@@H](O)CCC/C=C/[C@@H]3C[C@H](O)C[C@H]32)ccc1OCCN1CCCC(O)C1=O (stereo partly drawn)          ALP (A/L)                121.33

Kindly consider the entry below.
Qu. Look up ALP (A/L): CNCCOc1ccc(C(=O)O[C@@H]2/C=C/C(=O)O[C@@H](O)CCC/C=C/[C@@H]3C[C@H](O)C[C@H]32)cc1C(C)=O
Ans. 107.52

====

- experimental details: Serum biochemical markers after treatment of MNU-induced rats
- Format: in vivo, Wistar rats
- Design: unit not given here
- conditions: total bilirubin content, dose 50 mg/kg
// reported TBC for each item listed
Simply state the number, no unit and no words.

Solved cases below.
In [3]: df
Out[3]:
                                   compound  observed_measurement
0  CC(=O)c1cc(C(=O)O[C@@H]2/C=C/C(=O)O[C@@H](O)CCC/C=C/[C@@H]3C[C@H](O)C[C@H]32)ccc1OCCN(C)C                 17.72
1  CNCCOc1ccc(C(=O)O[C@@H]2/C=C/C(=O)O[C@@H](O)CCC/C=C/[C@@H]3C[C@H](O)C[C@H]32)cc1C(C)=O                 19.41
2  CC/C(=C(\c1ccc(O)cc1)c1ccc(OCCN(C)C)cc1)c1ccccc1 [Compound 4-OHT., 4-hydroxytamoxifen, reference compound]                 25.57

Qu. If you can, please state the reported TBC value of O=C(c1ccc(OCCN2CCCCC2)cc1)c1c(-c2ccc(O)cc2)sc2cc(O)ccc12 [Ral., Raloxifene, reference compound] .
Ans. 22.46

Qu. Now consider CC(=O)c1cc(C(=O)OC2/C=C/C(=O)O[C@@H](O)CCC/C=C/[C@@H]3C[C@H](O)C[C@@H]23)ccc1OCCN1CCC=C(C(=O)O)C1 (stereo partly drawn) and answer again.
Ans. 20.32

Qu. Ok, now CC(=O)c1cc(C(=O)O[C@@H]2/C=C/C(=O)O[C@@H](O)CCC/C=C/[C@@H]3C[C@H](O)C[C@H]32)ccc1OCCN1CC(C(=O)O)=CCC1=O
Ans. 24.46

Qu. Would you kindly repeat that for CC(=O)c1cc(C(=O)O[C@@H]2/C=C/C(=O)O[C@@H](O)CCC/C=C/[C@@H]3C[C@H](O)C[C@H]32)ccc1OCCS(=O)(=O)O ?
Ans. 22.74

Qu. And for CN(N=O)C(N)=O [MNU, Methyl nitrosourea, reference compound] ?
Ans. 32.34

Qu. Consider next the compound CC(=O)c1cc(C(=O)O[C@@H]2/C=C/C(=O)O[C@@H](O)CCC/C=C/[C@@H]3C[C@H](O)C[C@H]32)ccc1OCCN1CCCC(O)C1=O (stereo partly drawn) in the same way.
Ans. 23.43
